- Test details: Compound 38 PK Study
- Type: in vivo, C57Bl/6J mice
- Run parameters: male, C57Bl/6J, plasma; mouse; oral gavage 10 mg/kg
- Procedure: Method: Fasted male C57Bl/6J mice were dosed with a 1 mg/mL solution of Compound 38 in 10% DMSO, 10% Tween-80 and 80% water by intravenous injection (2 mg/kg, as a 0.4 mg/mL solution), oral gavage (10 mg/kg as a 1 mg/mL solution) or intraperitoneal injection (10 mg/kg as a 1 mg/mL solution). Plasma was collected at various time points and analyzed by LC/MS/MS to determine compound levels.
Measurement name: bioavailability

compound O=C(/C=C/c1cncc(F)c1)c1c(-c2ccccc2)c2cc(Cl)ccc2[nH]c1=O [Compound 38] , bioavailability observed: 20%
